Biological target: Recombinant human PDE3
Test: Inhibition of PDE3-mediated enzymatic breakdown of cAMP
Assay type: biochemical
Conditions: 24 °C; Cheng-Prusoff
measure: Ki (nM)
State the answer as a number, implicitly in nM.

Q) Fill in the blank: the reported Ki of `CC(=O)CCCCn1c(=O)c2c(ncn2C)n(C)c1=O` is ____.
A) 1340

###

Target: ABCC4 (Homo sapiens)
Construct: inside-out vesicles (IOV)s where erythrocytes from healthy, human donors were sampled; endogenous in cells; host or cells: inside-out vesicles from erythrocytes of healthy human donors
Sequence (O15439 1-1325): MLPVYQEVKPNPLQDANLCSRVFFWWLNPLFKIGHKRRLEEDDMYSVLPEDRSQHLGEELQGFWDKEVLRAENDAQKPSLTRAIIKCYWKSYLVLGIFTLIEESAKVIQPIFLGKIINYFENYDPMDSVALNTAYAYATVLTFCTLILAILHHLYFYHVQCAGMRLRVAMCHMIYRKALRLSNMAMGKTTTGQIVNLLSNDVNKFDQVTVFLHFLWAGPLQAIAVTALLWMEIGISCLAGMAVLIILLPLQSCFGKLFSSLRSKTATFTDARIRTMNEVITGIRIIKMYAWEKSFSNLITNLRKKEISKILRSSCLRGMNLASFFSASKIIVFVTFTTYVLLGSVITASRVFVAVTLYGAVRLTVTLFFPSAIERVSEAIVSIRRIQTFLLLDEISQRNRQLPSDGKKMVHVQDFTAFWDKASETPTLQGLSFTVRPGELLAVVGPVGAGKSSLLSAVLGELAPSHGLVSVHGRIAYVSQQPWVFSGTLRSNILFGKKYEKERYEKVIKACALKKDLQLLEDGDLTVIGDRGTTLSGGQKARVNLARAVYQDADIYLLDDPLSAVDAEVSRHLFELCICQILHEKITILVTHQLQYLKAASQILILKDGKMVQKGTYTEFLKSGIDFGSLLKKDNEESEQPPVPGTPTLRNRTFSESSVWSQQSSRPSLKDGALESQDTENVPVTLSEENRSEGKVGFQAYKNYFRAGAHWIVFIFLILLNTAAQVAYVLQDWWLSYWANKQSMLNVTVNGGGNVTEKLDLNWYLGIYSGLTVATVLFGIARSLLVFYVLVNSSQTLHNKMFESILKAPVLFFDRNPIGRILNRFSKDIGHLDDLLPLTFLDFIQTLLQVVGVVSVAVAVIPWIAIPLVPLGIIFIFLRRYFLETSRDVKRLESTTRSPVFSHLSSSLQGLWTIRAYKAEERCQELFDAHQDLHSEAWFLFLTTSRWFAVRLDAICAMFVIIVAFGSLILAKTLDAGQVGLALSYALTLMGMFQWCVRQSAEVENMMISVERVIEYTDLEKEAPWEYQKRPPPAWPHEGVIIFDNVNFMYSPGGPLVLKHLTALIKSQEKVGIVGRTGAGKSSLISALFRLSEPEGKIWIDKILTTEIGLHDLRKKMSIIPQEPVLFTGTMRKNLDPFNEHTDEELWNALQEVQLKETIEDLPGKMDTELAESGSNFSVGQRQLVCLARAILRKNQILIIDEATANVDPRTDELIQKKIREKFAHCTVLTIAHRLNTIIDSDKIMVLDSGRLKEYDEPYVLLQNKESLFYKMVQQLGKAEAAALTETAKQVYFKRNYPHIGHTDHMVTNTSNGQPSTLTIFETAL
Assay: biochemical
Assay type: biochemical
Conditions: 37 °C; Cheng-Prusoff; read-out: Ki for inhibition of cAMP-efflux
measure: Ki (nM)
Record the value in nM, omitting the unit from your answer.

Q) Recorded Ki for `CC(=O)CCCCn1c(=O)c2c(ncn2C)n(C)c1=O` , please?
A) 805
